Target: T1, human CD3 on CD3+ Jurkat cells (human, UniProt P07766 23-207)
T1 construct: whole, on cells; The whole CD3 complex stands on the cells; also called Human CD3 Jurkat; human CD3+ Jurkat cells
T1 sequence (P07766 23-207): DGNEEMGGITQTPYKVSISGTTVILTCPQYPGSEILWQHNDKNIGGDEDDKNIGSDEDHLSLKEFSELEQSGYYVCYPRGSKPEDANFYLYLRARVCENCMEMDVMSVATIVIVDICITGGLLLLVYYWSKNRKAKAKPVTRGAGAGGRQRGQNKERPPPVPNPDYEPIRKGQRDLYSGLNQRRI
Experiment: flow cytometry, yeast-produced IgG 100 nM on CD3+ Jurkat cells, pH 6.0
Experimental readout: NCB
API doc: respond with a numeric literal and nothing else, no unit.

ADI-74965 (Antibody No. 3), human IgG1 (antibody, V domains shown, Tested as human IgG1 (yeast-produced aglycosylated, or CHO-produced)) VH: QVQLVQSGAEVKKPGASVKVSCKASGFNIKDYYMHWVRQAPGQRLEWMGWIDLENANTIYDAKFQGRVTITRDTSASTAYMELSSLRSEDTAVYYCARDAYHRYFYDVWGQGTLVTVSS VL: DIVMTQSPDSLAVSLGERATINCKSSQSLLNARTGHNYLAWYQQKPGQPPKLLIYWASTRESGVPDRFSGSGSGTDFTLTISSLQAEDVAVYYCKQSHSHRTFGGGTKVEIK: 181
ADI-79844 (Antibody No. 10), human IgG1 (antibody, V domains shown, Tested as yeast-produced aglycosylated human IgG1) VH: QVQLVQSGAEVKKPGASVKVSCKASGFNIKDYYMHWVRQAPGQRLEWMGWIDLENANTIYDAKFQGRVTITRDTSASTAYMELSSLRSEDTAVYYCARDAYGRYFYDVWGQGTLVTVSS VL: DIVMTQSPDSLAVSLGERATINCKSSQSLLNARTGKNYLAWYQQKPGQPPKLLIYWASTRESGVPDRFSGSGSGTDFTLTISSLQAEDVAVYYCKQSHSRRTFGGGTKVEIK: 196

Consider the additional binder presented here.
Record ADI-79843 (Antibody No. 8), human IgG1 (antibody, V domains shown, Tested as yeast-produced aglycosylated human IgG1) VH: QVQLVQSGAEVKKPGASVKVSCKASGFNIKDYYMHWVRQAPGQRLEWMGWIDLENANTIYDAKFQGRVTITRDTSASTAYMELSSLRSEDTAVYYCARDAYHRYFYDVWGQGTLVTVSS VL: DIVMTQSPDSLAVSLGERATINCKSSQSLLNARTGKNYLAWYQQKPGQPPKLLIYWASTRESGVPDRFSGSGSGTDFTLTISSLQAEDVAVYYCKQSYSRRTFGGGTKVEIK . Reported NCB: 207

Value source: patent US20260152557A1
